B1: Zinc finger homeobox protein 4, residues 2562 to 2617; numbered along this chain, Q86UP3 (parent)
chain: RLRTTITPEQLEILYEKYLLDSNPTRKMLDHIAREVGLKKRVVQVWFQNTRARERK

# Variants of: B1
# assay-text: abundance fitness (aPCA) (normalised: wild type 0, dead -1); higher = more abundant; growth selection in yeast, the domain comes from the species named
# measurement-setup: Homo sapiens
Answer FALSE if abundance fitness is under -0.3, and TRUE if it is -0.3 or more.

Study these solved cases before continuing.
> print(dat)
   variant.description  assigned.class
1                 K39F           FALSE
2                 N23A            TRUE
3                 R26S            TRUE
4                 G37R           FALSE

## Input Given `R26L` , state whether its abundance fitness is at least -0.3.
## Output TRUE

## Input Given `R41D` , state whether its abundance fitness is at least -0.3.
## Output TRUE

## Input Given `L29W` , state whether its abundance fitness is at least -0.3.
## Output TRUE

## Input Given `P24F` , state whether its abundance fitness is at least -0.3.
## Output FALSE

## Input Given `R41S` , state whether its abundance fitness is at least -0.3.
## Output TRUE

## Input Given `S22H` , state whether its abundance fitness is at least -0.3.
## Output TRUE

## Input Given `P24H` , state whether its abundance fitness is at least -0.3.
## Output FALSE

## Input Given `Y18D` , state whether its abundance fitness is at least -0.3.
## Output FALSE

## Input Given `K17E` , state whether its abundance fitness is at least -0.3.
## Output TRUE

## Input Given `L19P` , state whether its abundance fitness is at least -0.3.
## Output FALSE

## Input Given `H31E` , state whether its abundance fitness is at least -0.3.
## Output TRUE

Reference source: the Human Domainome abundance scans (Beltran et al. 2025)
